- Experimental Target: Voltage-gated potassium channel subunit beta-2 (Rattus norvegicus) (UniProt P62483)
- Sequence (P62483 whole entry, looked up): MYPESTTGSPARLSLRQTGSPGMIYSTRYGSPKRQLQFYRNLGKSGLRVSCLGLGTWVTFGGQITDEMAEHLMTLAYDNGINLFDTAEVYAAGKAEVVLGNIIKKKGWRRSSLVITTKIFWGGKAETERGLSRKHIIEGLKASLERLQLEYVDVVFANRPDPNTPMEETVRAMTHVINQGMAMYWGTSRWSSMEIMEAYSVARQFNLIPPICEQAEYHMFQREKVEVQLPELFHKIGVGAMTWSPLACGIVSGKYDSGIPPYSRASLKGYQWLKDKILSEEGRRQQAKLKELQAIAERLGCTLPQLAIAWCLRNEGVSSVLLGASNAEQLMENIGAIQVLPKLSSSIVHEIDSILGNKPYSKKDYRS
- Assay Explanation: KvBeta enzyme negative modulators, primary screen, biochemical, NADPH fluorescence (AID 622);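 also: slope of raw intensity against log time taken from 70 to 1610 s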
- Condition Notes: recombinant KvBeta, 4-cyanobenzaldehyde reduction, at 10 µM, hits give high values

Compound | fluorescence slope
O=S(=O)(c1cccc2cnccc12)N1CCCNCC1 | -0.463
COc1cccc(-c2nn3c(-c4ccco4)nnc3s2)c1 | -0.406
COc1cc2c(C(=O)N3CCN(c4ccccc4)CC3)c(C)oc2cc1Br | -0.532
C[C@@H]1C[C@H]2[C@@H]3CCC4=CC(=O)C=C[C@]4(C)[C@@]3(F)[C@@H](O)C[C@]2(C)[C@H]1C(=O)CO | -0.536
CSc1nc(N)nc(SCC(=O)CC(=O)OC(C)C)c1C#N | -0.372
C=C(C)CSC1=C(C#N)C(c2ccsc2)CC(=O)N1 (stereo unspecified) | -0.512
Cc1nc(SCC(=O)c2ccccc2)c(C#N)c(-c2ccco2)c1C(=O)NCc1ccco1 | -0.39
NC(Cc1ccc(Oc2ccc(O)cc2)cc1)C(=O)O (stereo unspecified) | -0.495
Cn1c([N+](=O)[O-])cnc1COC(N)=O | -0.492
Nc1nonc1-c1noc(-c2ccccc2)n1 | -0.516
CCOC(=O)c1[nH]c2ccc(OC)cc2c1NC(=O)CN1CCN(c2ccccn2)CC1 | -0.16

====

- Experimental Target: Dual specificity protein phosphatase 6 (Homo sapiens) (UniProt Q16828)
- Sequence (Q16828 whole entry, looked up): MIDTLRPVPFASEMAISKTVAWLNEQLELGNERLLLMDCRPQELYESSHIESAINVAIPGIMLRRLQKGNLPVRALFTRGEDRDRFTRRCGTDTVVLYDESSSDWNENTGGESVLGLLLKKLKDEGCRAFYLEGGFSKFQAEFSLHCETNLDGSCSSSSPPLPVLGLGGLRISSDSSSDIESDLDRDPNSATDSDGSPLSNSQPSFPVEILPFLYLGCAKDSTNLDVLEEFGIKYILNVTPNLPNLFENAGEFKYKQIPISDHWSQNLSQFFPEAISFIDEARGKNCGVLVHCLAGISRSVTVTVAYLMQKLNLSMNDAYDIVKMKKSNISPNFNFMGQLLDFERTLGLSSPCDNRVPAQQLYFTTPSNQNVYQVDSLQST
- Assay Explanation: DUSP6 inhibitors restoring Erk phosphorylation by chemical complementation, primary imaging in DUSP6-transfected HeLa (AID 609);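 also: phospho-Erk level distribution per well compared with pooled transfected vehicle control wells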
- Condition Notes: HeLa MKP-3 transfected, phospho-Erk imaging KS statistic; at 10 µM; hits give high values; cells stimulated with TPA for 15 min
Calls of active or inactive are those of the source.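 How the source made its calls: active means compounds giving at least 50% inhibition in the cell-based MKP-3 phosphatase rescue imaging test; inactive means the rest.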
Listed here are molecules together with their documented inhibition.

Molecule | Experimental Target | inhibition
CCOC(=O)COn1c(=O)c(-c2ccco2)[n+]([O-])c2ccccc21 | Dual specificity protein phosphatase 6 (Homo sapiens) (UniProt Q16828) | 8.76% (inactive)
CC1(C)Cc2c(C#N)c(SCC(=O)c3ccccc3)nc(N3CCCC3)c2CO1 | Dual specificity protein phosphatase 6 (Homo sapiens) (UniProt Q16828) | 9.82% (inactive)
CC(C)c1cc(NCCCN2CCOCC2)n2c(nc3ccccc32)c1C#N | Dual specificity protein phosphatase 6 (Homo sapiens) (UniProt Q16828) | 6.51% (inactive)
Cc1nn(C)cc1CNC(=O)c1ccc(Br)o1 | Dual specificity protein phosphatase 6 (Homo sapiens) (UniProt Q16828) | 10.1% (inactive)
CC1(C)NC(=O)N(CC(O)Cn2nnc3ccccc32)C1=O (stereo unspecified) | Dual specificity protein phosphatase 6 (Homo sapiens) (UniProt Q16828) | -7.28% (inactive)
CN(C)c1ccc(C2C3C(=O)N(c4ccc(C(=O)O)cc4)C(=O)C3ON2c2ccccc2)cc1 (stereo unspecified) | Dual specificity protein phosphatase 6 (Homo sapiens) (UniProt Q16828) | -13.3% (inactive)
CC(CN1CCN(C)CC1)OC(=O)c1ccc(Cl)cc1Cl (stereo unspecified) | Dual specificity protein phosphatase 6 (Homo sapiens) (UniProt Q16828) | -0.624% (inactive)
O=C(CN1C(=O)c2ccccc2C1=O)NCc1ccccn1 | Dual specificity protein phosphatase 6 (Homo sapiens) (UniProt Q16828) | 5.42% (inactive)
COc1ccc2nc(S(=O)Cc3ncc(C)c(OC)c3C)[nH]c2c1 (stereo unspecified) | Dual specificity protein phosphatase 6 (Homo sapiens) (UniProt Q16828) | 25.7% (inactive)
Cc1ccc2cc(CN(C(=O)c3ccco3)c3ccccc3)c(=O)[nH]c2c1 | Dual specificity protein phosphatase 6 (Homo sapiens) (UniProt Q16828) | 19.3% (inactive)
Nc1nonc1-c1noc(-c2ccccc2)n1 | Dual specificity protein phosphatase 6 (Homo sapiens) (UniProt Q16828) | 13.2% (inactive)
